system.tested: androgen receptor (AR) (Homo sapiens, UniProt P10275, T878A)
Construct: endogenous in cells; host or cells: LNCaP
Sequence (P10275 whole entry T878A): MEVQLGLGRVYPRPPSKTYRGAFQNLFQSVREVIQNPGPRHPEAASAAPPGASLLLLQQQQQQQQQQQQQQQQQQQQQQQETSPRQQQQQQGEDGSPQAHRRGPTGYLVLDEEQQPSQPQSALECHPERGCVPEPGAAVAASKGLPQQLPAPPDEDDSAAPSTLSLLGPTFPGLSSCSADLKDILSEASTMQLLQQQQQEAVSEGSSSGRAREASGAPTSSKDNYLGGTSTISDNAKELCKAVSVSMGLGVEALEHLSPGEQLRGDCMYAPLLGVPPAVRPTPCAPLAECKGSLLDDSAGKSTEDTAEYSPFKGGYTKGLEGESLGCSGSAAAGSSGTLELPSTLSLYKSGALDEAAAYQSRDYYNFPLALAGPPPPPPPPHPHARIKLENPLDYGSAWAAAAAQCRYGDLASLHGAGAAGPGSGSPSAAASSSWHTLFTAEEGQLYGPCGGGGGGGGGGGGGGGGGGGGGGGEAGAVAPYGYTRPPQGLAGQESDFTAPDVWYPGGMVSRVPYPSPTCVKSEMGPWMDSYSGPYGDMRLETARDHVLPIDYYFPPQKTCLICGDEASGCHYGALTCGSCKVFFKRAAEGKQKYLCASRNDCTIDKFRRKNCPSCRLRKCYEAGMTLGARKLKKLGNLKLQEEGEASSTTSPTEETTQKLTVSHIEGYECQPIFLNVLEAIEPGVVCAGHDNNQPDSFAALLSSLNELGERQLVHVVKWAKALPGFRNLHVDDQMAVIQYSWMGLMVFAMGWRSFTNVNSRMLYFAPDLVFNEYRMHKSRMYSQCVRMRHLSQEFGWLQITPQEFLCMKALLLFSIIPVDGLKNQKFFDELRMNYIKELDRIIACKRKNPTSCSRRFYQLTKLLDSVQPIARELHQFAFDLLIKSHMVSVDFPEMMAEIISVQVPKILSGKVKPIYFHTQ
Sequence (Q96SW2 whole entry partner): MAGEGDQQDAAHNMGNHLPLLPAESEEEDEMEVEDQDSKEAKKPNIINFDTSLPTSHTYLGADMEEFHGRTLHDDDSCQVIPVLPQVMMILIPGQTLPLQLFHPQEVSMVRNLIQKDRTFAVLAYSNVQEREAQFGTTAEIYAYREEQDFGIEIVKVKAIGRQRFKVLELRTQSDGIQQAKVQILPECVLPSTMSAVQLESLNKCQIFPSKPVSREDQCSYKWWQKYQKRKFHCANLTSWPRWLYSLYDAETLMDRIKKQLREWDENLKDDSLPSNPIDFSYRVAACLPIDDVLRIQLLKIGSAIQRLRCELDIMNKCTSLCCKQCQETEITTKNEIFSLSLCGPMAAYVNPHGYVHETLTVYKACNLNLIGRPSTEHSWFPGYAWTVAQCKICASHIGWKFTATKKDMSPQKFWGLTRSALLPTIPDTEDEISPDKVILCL
protocol: Reduction of androgen receptor (AR) expression levels in LNCaP cells (Western blot, DC50 and Dmax)
Format: cell-based
experimental.context: 24 h of treatment, 0.01, 0.1, 1 and 10 µM, α-tubulin internal reference
property.label: Dmax

Worked set:
According to the records, this compound N#Cc1ccc(O[C@H]2CC[C@H](NC(=O)c3ccc(N4CCN(CC5CCN(c6ccc(C7CCC(=O)NC7=O)nn6)CC5)CC4)cc3)CC2)cc1Cl (stereo partly drawn) displays Dmax of 50 to 85%

According to the records, this compound N#Cc1ccc(OC2CCC(NC(=O)c3ccc(N4CCC(CN5CCN(c6ccc(C7CCC(=O)NC7=O)nn6)CC5)CC4)nn3)CC2)cc1Cl (stereo not drawn) displays Dmax of > 85%

Now, please, on to the next compound.
According to the records, this compound Cc1cc(N2CCN(CC3CCN(c4ccc(C(=O)N[C@H]5CC[C@H](Oc6ccc(C#N)c(Cl)c6)CC5)nn4)CC3)CC2)nnc1C1CCC(=O)NC1=O (stereo partly drawn) displays Dmax of 50 to 85%

----------
Listed here are compounds together with their documented Dmax.
system.tested: androgen receptor (AR) (Homo sapiens, UniProt P10275, T878A)
Construct: endogenous in cells; host or cells: LNCaP
protocol: Reduction of androgen receptor (AR) expression levels in LNCaP cells (Western blot, DC50 and Dmax)
Assay type: cell-based
experimental.context: 24 h of treatment, 0.01, 0.1, 1 and 10 µM, α-tubulin internal reference

Worked set:
According to the records, this compound N#Cc1ccc(O[C@H]2CC[C@H](NC(=O)c3ccc(N4CCC(CN5CC6(C5)CN(c5ccc(C7CCC(=O)NC7=O)nn5)C6)CC4)cc3)CC2)cc1Cl (stereo partly drawn) displays Dmax of 50 to 85%

According to the records, this compound "N#Cc1ccc(O[C@H]2CC[C@H](NC(=O)c3ccc(N4CCC(CN5CCN(c6ccc(N7CCC(=O)NC7=O)nn6)CC5)CC4)nn3)CC2)cc1Cl" displays Dmax of > 85%

Further cases:
According to the records, this compound N#Cc1ccc(O[C@H]2CC[C@H](NC(=O)c3ccc(N4CCC(n5cc(C#Cc6ccc(C7CCC(=O)NC7=O)nn6)cn5)CC4)cc3)CC2)cc1Cl (stereo partly drawn) displays Dmax of > 85%

----------
Listed here are compounds together with their documented Dmax.
system.tested: BRD protein (Homo sapiens, UniProt O60885)
Construct: endogenous in cells; host or cells: MV-4-11
protocol: Reduction of bromodomain protein (BRD) expression levels in MV-4-11 cells (Western blot, DC50 and Dmax)
Assay type: cell-based
experimental.context: MV4-11, 24 hours of treatment, 0.1, 1, 10 and 20 µM, BRD4 Western blot, GAPDH internal reference
Procedure: The human […] MV-4-11 cells selected in this experiment were cultured in Iscove's Modified Dulbecco's Medium (IMDM) culture medium containing 10% fetal bovine serum (Gibco, USA) in an incubator under the conditions of at 37°C, 5% CO2 and 95% humidity. […] The concentration of the protein in the extract was detected by using a BCA method. […]

Worked set:
According to the records, this compound Cc1sc2c(c1C)C(c1ccc(Cl)cc1)=N[C@@H](CC(=O)NCCCn1cc(C#Cc3ccc(C4CCC(=O)NC4=O)nn3)cn1)c1nnc(C)n1-2 (stereo partly drawn) [PRTB-15] displays Dmax of > 85%

According to the records, this compound Cc1sc2c(c1C)C(c1ccc(Cl)cc1)=N[C@@H](CC(=O)NCCCOCC(=O)N1CCN(c3ccc(C4CCC(=O)NC4=O)nn3)CC1)c1nnc(C)n1-2 (stereo partly drawn) [PRTB-07] displays Dmax of < 50%

Further cases:
According to the records, this compound Cc1sc2c(c1C)C(c1ccc(Cl)cc1)=N[C@@H](CC(=O)NCCCCCCNC(=O)COc1ccc(C3CCC(=O)NC3=O)nn1)c1nnc(C)n1-2 (stereo partly drawn) [PRTB-03] displays Dmax of < 50%
